Listing: IC50 of selected compounds
target: cGMP-PDE (Sus scrofa, UniProt A0A287B475); construct: Swine lung was minched, followed by the addition of five times (by volume) as much buffer A; from tissue; host or cells: swine lung; experiment: Inhibitory activity against cGMP-PDE prepared from swine lung; type: biochemical; conditions: 1 mM EGTA, 1 mM cGMP as substrate, DMSO 5% or below
Counter-ions that a name gives are not always drawn.
The reply should be a number in nM, with the unit left off.

Completed entries (count: 5):
Cl.N#Cc1ccc2c(N3CCC(O)CC3)nnc(NCc3ccc4c(c3)OCO4)c2c1 [Example 26, hydrochloride]    4
COc1ccc(CNc2nnc(N3CCC(CO)CC3)c3ccc([N+](=O)[O-])cc23)cc1Cl.Cl [Example 52, hydrochloride]    0.1
COc1ccc(CNc2nnc(-n3ccnc3)c3ccc(Cl)cc23)cc1Cl    3.74
COc1ccc(CNc2nnc(Cl)c3ccc([N+](=O)[O-])cc23)cc1Cl    1.88
COc1ccc(CNc2nnc(N3CCC(C(=O)O)CC3)c3ccc(C#N)cc23)cc1Cl [Example 20, hydrochloride]    0.12

Given the compound COc1ccc(CNc2nnc(N3CCC(C(=O)O)CC3)c3ccc([N+](=O)[O-])cc23)cc1Cl.Cl [Example 56, hydrochloride] , what is its reported IC50?
12.6

Given the compound COc1ccc(CNc2nnc(N3CCC(C)(O)CC3)c3ccc(C#N)cc23)cc1Cl.Cl [Example 9, hydrochloride] , what is its reported IC50?
0.7
